The origin of these recorded values is PubChem BioAssay AID1508601.

target: Cellular tumor antigen p53 (Homo sapiens) (UniProt P04637); experiment: nuclear p53 accumulation, HPV+ cells – imaging, p53-positive nuclei imaging, 24 h, 48 h (AID 1508601); conditions: 24/48 h, measured here: p53 positive nuclei at 24 h, Library stock concentration: 278 uM, stronger effect = higher value
Sequence (P04637 whole entry, looked up): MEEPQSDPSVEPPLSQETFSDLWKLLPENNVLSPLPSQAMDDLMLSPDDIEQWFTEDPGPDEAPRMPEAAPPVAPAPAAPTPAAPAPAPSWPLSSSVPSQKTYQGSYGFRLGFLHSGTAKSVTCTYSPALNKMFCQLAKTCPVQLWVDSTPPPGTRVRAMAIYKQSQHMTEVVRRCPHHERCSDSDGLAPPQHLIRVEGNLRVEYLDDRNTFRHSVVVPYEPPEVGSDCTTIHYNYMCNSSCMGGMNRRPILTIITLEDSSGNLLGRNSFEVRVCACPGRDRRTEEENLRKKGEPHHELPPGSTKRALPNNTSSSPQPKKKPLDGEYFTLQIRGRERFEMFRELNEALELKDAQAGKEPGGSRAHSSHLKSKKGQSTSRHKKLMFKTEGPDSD
In all, about 5,700 compounds went through this assay and about 85 (1%) were called active. The full list was thinned out, with actives kept by preference.
readout.name: p53-positive nuclei, normalised (%)
Write the value in % as a bare number.

molecule | reported.measurement
Cc1cc(OCCCS(C)(=O)=O)cc(C)c1-c1cccc(COc2ccc3c(c2)OCC3CC(=O)O)c1 (stereo unspecified) | 0.151
O=C1NCCSc2c1sc1ccc(O)cc21 | -0.0893
O=C1CN2Cc3c(ccc(Cl)c3Cl)N=C2N1 | 6.86
CCOC(=O)NC1CCC2C(C1)CC1C(=O)OC(C)C1C2C=Cc1ccc(-c2cccc(F)c2)cn1 (stereo unspecified) | -0.151
CCCCCCCCc1cccc(NC(=O)C(N)COP(=O)(O)O)c1 (stereo unspecified) | -0.0546

Request: State the recorded p53-positive nuclei, normalised for this entry: `CCCCCc1ccc(C=CC(=O)Nc2ccccc2C(=O)O)cc1`
Result: -0.151
